Catalogue of compounds with associated cell viability
# Test system: Calu-3
# assay-procedure: cell viability relative to DMSO; higher = less toxic
# experimental-setup: 72 h; 10 nM
Your answer is read as %, so omit the unit and give the number.

Example cases with answers are listed next.
compound: CCCCNC(=O)[C@@H]1Cc2ccccc2N1C(=O)[C@@H](N)CC [butabindide]
units-label: %
cell viability: 99.7

compound: CC[C@H](CC#N)OC(=O)N[C@@H](C)c1cccc(NC(=O)Nc2ccc(-c3cnco3)c(OC)c2)c1 [AVN-944]
units-label: %
cell viability: 92.9

compound: COc1ccc2c(c1)/C(=C/c1cnc[nH]1)C(=O)N2 [SU9516]
units-label: %
cell viability: 109

compound: Ic1cncc(OC[C@@H]2CCN2)c1
units-label: %
cell viability: 98.4

Could you now consider this next compound?
Looking up O=C(Nc1nc2ccc(NC(=O)C34CC5CC(CC(C5)C3)C4)cc2s1)c1ccccc1 [NVP-231] , I see its cell viability listed as 96.1

* * *

Catalogue of molecules with associated cell viability
# Test system: Vero E6
# assay-procedure: cell viability relative to DMSO; higher = less toxic
# experimental-setup: 72 h; 1 nM
Your answer is read as %, so omit the unit and give the number.

Example cases with answers are listed next.
molecule: COc1cc2c(cc1Cc1cccc(Cl)c1F)c(=O)c(C(=O)O)cn2[C@H](CO)C(C)C
units-label: %
cell viability: 101
//
molecule: On1ncc(C2CCNCC2)c1-c1cccc(-c2ccccc2)c1
units-label: %
cell viability: 97.7
//
molecule: O=C1Nc2ccccc2C2(CCN(CCc3ccc(C(F)(F)F)cc3)CC2)O1
units-label: %
cell viability: 95.6
//
molecule: [N-]=[N+]=N[C@]1(CO)O[C@@H](n2ccc(N)nc2=O)[C@H](O)[C@@H]1O
units-label: %
cell viability: 99
//
molecule: Oc1ccc2c3c1O[C@H]1c4oc5ccccc5c4C[C@@]4(O)[C@@H](C2)N(CC2CC2)CC[C@]314
units-label: %
cell viability: 90.9

Looking up Nc1ncnc2c1nc(Br)n2[C@@H]1O[C@@H]2COP(=O)(O)O[C@H]2[C@H]1O , I see its cell viability listed as 100

Looking up O=C1Nc2ccc(Cl)c3c2C1(CCCCN1CC=C(c2ccc(Cl)cc2)CC1)CCC3 (centres undefined) , I see its cell viability listed as 100

Looking up O=C(O)c1cc(C(=O)O)c(C(=O)N(Cc2cccc(Oc3ccccc3)c2)[C@H]2CCCc3ccccc32)cc1C(=O)O , I see its cell viability listed as 98.2

Looking up Fc1cccc(/C=N/N=C/c2cccc(F)c2)c1 , I see its cell viability listed as 99.9

* * *

# Test system: Caco-2
# assay-procedure: relative viability EC50 (midpoint between 100% and the lowest measured viability); higher = less toxic
# experimental-setup: 72 h
Catalogue of compounds with associated relative viability EC50

Example cases with answers are listed next.
compound: CCCC(C)C1(CC)C(=O)NC(=O)NC1=O (stereo not drawn)
study-target: Caco-2
relative viability EC50: > 10 µM
--
compound: O=C(NN1C(=O)[C@@H]2[C@@H]3C=C[C@@H]([C@H]4C[C@@H]34)[C@@H]2C1=O)c1ccc(C(F)(F)F)cc1
study-target: Caco-2
relative viability EC50: > 10 µM
--
compound: Oc1ccc2c3c1O[C@H]1c4oc5ccccc5c4C[C@@]4(O)[C@@H](C2)N(CC2CC2)CC[C@]314
study-target: Caco-2
relative viability EC50: > 10 µM
--
compound: CCCn1c(=O)c2[nH]cnc2n(-c2ccc(Cl)cc2)c1=O
study-target: Caco-2
relative viability EC50: > 10 µM

Looking up CC[N+](CC)(CC(=O)Nc1c(C)cccc1C)Cc1ccccc1 [denatonium-benzoate] , I see its relative viability EC50 listed as > 10 µM

Looking up O=[N+]([O-])c1cccc2cn[nH]c12 , I see its relative viability EC50 listed as > 10 µM

Looking up C[C@@H](CN)CC(=O)O , I see its relative viability EC50 listed as > 10 µM

Looking up CN(C)CCOC(c1ccc(Cl)cc1)c1ccccn1 (stereo not drawn) , I see its relative viability EC50 listed as > 10 µM

Looking up CCC[C@H](Nc1nc(-c2ccc(NC(=O)NCC)c(OC)c2)ncc1C)c1cccnc1 , I see its relative viability EC50 listed as 0.198 µM

* * *

Catalogue of compounds with associated cell viability
# Test system: U2OS
# assay-procedure: cell viability relative to DMSO; higher = less toxic
# experimental-setup: 72 h; 100 nM
Structures can show the parent of a compound that is named as a salt.
Your answer is read as %, so omit the unit and give the number.

compound: CC[N+](CC)(CC(=O)Nc1c(C)cccc1C)Cc1ccccc1 [denatonium-benzoate]
outcome-measure: cell viability
reported-measurement: 95.9
//
compound: CCOc1ccc(-n2c([C@@H](C)N(Cc3cccnc3)C(=O)Cc3ccc(OC(F)(F)F)cc3)nc3ncccc3c2=O)cc1 (racemic) [AMG-487-(+/-)]
outcome-measure: cell viability
reported-measurement: 97.3
//
compound: CC(CNS(=O)(=O)C(C)C)c1ccc(-c2ccc(C#N)cc2)cc1 (stereo not given)
outcome-measure: cell viability
reported-measurement: 99.2
//
compound: COc1cccc2c1C(=O)c1c(O)c3c(c(O)c1C2=O)C[C@@](O)(C(=O)CO)C[C@@H]3O[C@H]1C[C@H](N)[C@@H](O)[C@H](C)O1 [Epirubicin Hydrochloride]
outcome-measure: cell viability
reported-measurement: 90.2
//
compound: COc1ccc2c(c1)/C(=C/c1cnc[nH]1)C(=O)N2
outcome-measure: cell viability
reported-measurement: 101

Looking up CC(C)OC(=O)c1cc2c(OC[C@@H](O)CNC(C)(C)C)cccc2[nH]1 , I see its cell viability listed as 96.1

Looking up Nc1ccn([C@@H]2CS[C@H](CO)O2)c(=O)n1 , I see its cell viability listed as 97.7

* * *

Catalogue of compounds with associated cell viability
# System: Caco-2
# assay-procedure: cell viability relative to DMSO; higher = less toxic
# experimental-setup: 72 h; 10000 nM
Your answer is read as %, so omit the unit and give the number.

Looking up Cc1ccc(N(CC2=NCCN2)c2cccc(O)c2)cc1 , I see its cell viability listed as 91.1

Looking up O=[N+]([O-])c1cccc2cn[nH]c12 , I see its cell viability listed as 97.8

* * *

# Tested on: Caco-2
# assay-procedure: cell viability relative to DMSO; higher = less toxic
# experimental-setup: 72 h; 10000 nM
Catalogue of molecules with associated cell viability
Your answer is read as %, so omit the unit and give the number.

molecule: Cc1cc(C)c(Nc2ccnc(Nc3ccc(C#N)cc3)n2)c(C)c1
cell viability / %: 47.8
//
molecule: O=S(=O)(N[C@H]1CC[C@@](c2cc(F)ccc2F)(S(=O)(=O)c2ccc(Cl)cc2)CC1)C(F)(F)F
cell viability / %: 95.6
//
molecule: Oc1ccc2c3c1O[C@H]1c4[nH]c5ccccc5c4C[C@@]4(O)[C@@H](C2)N(CC2CC2)CC[C@]314
cell viability / %: 106
//
molecule: CC(C)(C)NC(=O)N[C@H](C(=O)N1C[C@H]2[C@@H]([C@H]1C(=O)NC(CC1CCC1)C(=O)C(N)=O)C2(C)C)C(C)(C)C (stereo partly drawn)
cell viability / %: 105
//
molecule: COc1ccc2c(c1)/C(=C/c1cnc[nH]1)C(=O)N2
cell viability / %: 96.8
//
molecule: Cc1c(C(=O)NN2CCOCC2)nn(-c2ccc(Cl)cc2Cl)c1-c1ccc(I)cc1
cell viability / %: 107
//
molecule: Nc1ncnc2c1nc(Br)n2[C@@H]1O[C@@H]2COP(=O)(O)O[C@H]2[C@H]1O
cell viability / %: 81.5

Could you now consider this next molecule?
Looking up CCCCC[C@H](O)/C=C/[C@H]1[C@H](O)CC(=O)[C@@H]1CCCCCCC(=O)O , I see its cell viability listed as 97.8

* * *

# Test system: Caco-2
# assay-procedure: drug sensitivity score (DSS) for viability; higher = more toxic; extreme values may be limits of the assay
# experimental-setup: 72 h
outcome-measure: drug sensitivity score
No unit in the answer, only the number.

molecule: CSc1ccccc1OCC(O)CNC(C)C (stereo not drawn)
reported-measurement: 0
//
molecule: C=C1/C(=C\C=C2/CCC[C@]3(C)[C@@H]([C@H](C)CCCC(C)(C)O)CC[C@@H]23)C[C@@H](O)C[C@@H]1O
reported-measurement: 0
//
molecule: CCOC(=O)[C@H](CCc1ccccc1)N[C@@H](C)C(=O)N1CCC[C@H]1C(=O)O
reported-measurement: 0

Looking up CCCCc1ccc(O)cc1O , I see its drug sensitivity score listed as 0

Looking up C/C(=C\C(N)C(=O)O)CP(=O)(O)O (stereo not drawn) , I see its drug sensitivity score listed as 0

* * *

Catalogue of molecules with associated cell viability
# System: Calu-3
# assay-procedure: cell viability relative to DMSO; higher = less toxic
# experimental-setup: 72 h; 1 nM
Your answer is read as %, so omit the unit and give the number.

Example cases with answers are listed next.
molecule: C[C@]12CCC(=O)C[C@@H]1CC[C@@H]1[C@@H]2CC[C@]2(C)C=CC[C@@H]12 [androstenone]
study-target: Calu-3
units-label: %
cell viability: 90.7
//
molecule: Fc1cccc(/C=N/N=C/c2cccc(F)c2)c1 [DFB]
study-target: Calu-3
units-label: %
cell viability: 115

Field cell viability (system: Calu-3) for entry Nc1ccccc1S(N)(=O)=O [2-aminobenzenesulfonamide] = 90.9

Field cell viability (system: Calu-3) for entry C/C(=C\c1ccc(C(=O)O)cc1)c1ccc2c(c1)C(C)(C)CCC2(C)C [TTNPB] = 95

Field cell viability (system: Calu-3) for entry C/C(=C\C(N)C(=O)O)CP(=O)(O)O (stereo not drawn) = 95.9

Each recorded value in this set is attributed to the supplement of paper PMC13380429.
